- test_description: Stat Signaling Pathway (AID 446);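 also: ME-180 cervical cancer cells given 40 pM IL-6 alongside compound; SIE-controlled beta-lactamase reporter measured as 460/530 nm FRET emission ratio; % is scaled to controls: 0 for no effect and ±100 for the full control effect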
- condition_description: ME-180 (cervical carcinoma) SIE beta-lactamase reporter, IL-6 stimulated, 5 h; at 7.69 µM (top of the series) unless noted
Results filed as inconclusive are left out. The source made the active and inactive calls. Calls follow the shape of the dose curve; as a rule, active = well fitted curve in either direction with a large enough effect (not every such curve was filed as active); inconclusive = small, poorly fitted or top-dose-only effect, or another doubt; inactive = flat fitted curve, though single readings scatter.
Outcomes you can answer with include only these: active, inactive

>>> label_class("CC(C)[C@@H](Br)C(=O)NCC(=O)O")
"inactive"
>>> label_class("CC[C@@](O)(C(=O)O)c1cc2n(c(=O)c1CO)Cc1cc3ccccc3nc1-2")
"inactive"
>>> label_class("Cc1ccc(C2(c3ccc(C)c(O)c3C)CCN(C)CC2)c(C)c1O")
"inactive"
>>> label_class("c1ccc(CCN2CCCCCC2)nc1")
"inactive"

Continue with the next compound.
# fetch the recorded call for CC1=C2C(=O)[C@@H]3[C@@H](CC=C4C[C@@H](O)CC[C@@]43C)[C@H]2CC[C@@]12O[C@H]1C[C@H](C)CN[C@H]1[C@@H]2C here inactive

====

- test_description: Cell Viability - LYMP2-024 (AID 988);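 also: cells exposed to compound for 24 hr at 37 °C; nearly all actives have a fitted effect of over 60% in size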
- condition_description: LYMP2-024 lymphoblastoid cell viability; series mostly up to 92.2 µM
Inconclusive results are not listed. Calls of active or inactive are those of the source. The call rests on the fitted dose curve; in most records, active means well fitted cell-killing curve with a large enough effect; inconclusive means small, poorly fitted or top-dose-only effect; inactive means flat fitted curve, though single readings scatter.
Outcomes you can answer with include only these: Y = active, N = inactive

Known results for compounds:
>>> label_class("CN1CSC(=S)N(C)C1")
"Y"
>>> label_class("ClC=CCl")
"N"
>>> label_class("Cc1cc(-c2ccc(N)c(C)c2)ccc1N")
"N"
>>> label_class("CC1CC(=O)O1 (stereo not drawn)")
"N"
>>> label_class("O=Cc1ccc(Cl)cc1Cl")
"N"
>>> label_class("Nc1ccc(-c2ccc(N)cc2)cc1")
"N"

# fetch the recorded call for C1CC2OC2CC1C1CO1 (stereo not drawn) here N

# fetch the recorded call for O=[N+]([O-])c1ccccc1-c1ccccc1 here N

# fetch the recorded call for CCCCOC(=O)c1ccccc1N here N

# fetch the recorded call for BrCCc1ccccc1 here N

# fetch the recorded call for COc1c(C(C)(C)C)cc([N+](=O)[O-])c(C)c1[N+](=O)[O-] here N

# fetch the recorded call for CC(C)(OOC(C)(C)c1ccccc1)c1ccccc1 here N

# fetch the recorded call for Cc1cc(C)cc(OP(=O)(Oc2cc(C)cc(C)c2)Oc2cc(C)cc(C)c2)c1 here N

# fetch the recorded call for CN(C)C(=O)Nc1ccc(Cl)cc1 here N

# fetch the recorded call for BrCC(Br)(Br)Br here Y

# fetch the recorded call for C=CCCl here N

# fetch the recorded call for ClCCBr here N

# fetch the recorded call for CCN(CC)CCO here N

# fetch the recorded call for Cc1cc(N=Nc2ccccc2C)ccc1N here N

====

- Test system: HIV-1 nucleocapsid protein NCp7 (binding to TG oligonucleotide)
- test_description: HIV Nucleocapsid (AID 346);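 also: potency is read from the fitted curve at half-maximal effect; potency is for inhibitors that block NC binding and lower polarization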
- condition_description: HIV-1 NC / fluorescein-TGTGTGTG probe, fluorescence polarization
The source made the active and inactive calls. No rule for the calls is given here.
Item-by-item account of Potency

>>> measured_result("O=C(c1ccco1)N1CCC[C@@]2(CCN(c3ccncc3)C2)C1")
"> 20 µM (inactive)"

Notebook: Cc1nc2cncnc2n(Cc2ccccc2)c1=O , Potency read as > 20 µM (inactive)

Notebook: Cc1nc2cnc(N3CCN(C)CC3)nc2n(CCC#N)c1=O , Potency read as > 20 µM (inactive)

Notebook: CN(C)C(=O)c1ccc(-c2cc(NCc3ccccc3)ncn2)cc1 , Potency read as > 20 µM (inactive)

Notebook: CN1CCN(c2ncc3nc(-c4cn(C)c5ccccc45)c(=O)n(CCc4ccccc4)c3n2)CC1 , Potency read as > 4 µM (inactive)

Notebook: CS(=O)(=O)N1CCC2(CCCN(C(c3ccccc3)c3ccccc3)C2)CC1 , Potency read as > 20 µM (inactive)

====

Item-by-item account of activation
- test_description: qHTS assay for environmental chemicals that activate the Aryl hydrocarbon Receptor (AhR) signaling pathway (AID 651777); also: % of control where 0% means no effect; nearly all actives have a fitted effect of over 15% in size
- condition_description: 1A2-DRE human hepatoma cells, luciferase, 24 h; stronger effect = higher value
Results filed as inconclusive are left out.
Report as a plain number; the unit % is understood.

>>> measured_result("O=Cc1ccc2c(c1)OCO2")
-0.902

Notebook: Cc1ccccc1[N+](=O)[O-] , activation read as -1.35

Notebook: Oc1ccc(Cl)c(Cl)c1Cl , activation read as 3.11

Notebook: C=CC(=O)OCC(C)C , activation read as 0.0769

Notebook: CC(C)(COCC1CO1)COCC1CO1 (stereo not given) , activation read as -0.0471

Notebook: C=CCc1cc(OC)c2c(c1)OCO2 , activation read as 0.0584

====

- System: AS120
- test_description: qHTS profiling for inhibitors of Plasmodium falciparum proliferation (AID 504749); also: nearly all actives have a fitted effect of over 60% in size
- condition_description: P. falciparum in erythrocytes, SYBR Green DNA, 72 h; series mostly up to 28.7 µM
Inconclusive results are not listed. Calls of active or inactive are those of the source. Calls follow the shape of the dose curve; as a rule, active = well fitted inhibition curve with a large enough effect; inconclusive = small, poorly fitted or top-dose-only effect; inactive = flat fitted curve, though single readings scatter.
Outcomes you can answer with include only these: active, inactive

>>> label_class("C[C@@H]1O[C@@H](O[C@H]2C[C@@H](O)[C@@]3(CO)[C@H]4[C@H](O)C[C@]5(C)[C@@H](C6=CC(=O)OC6)CC[C@]5(O)[C@H]4CC[C@@]3(O)C2)[C@@H](O)[C@H](O)[C@H]1O")
"inactive"
>>> label_class("C[C@@H](Cc1ccc(O)cc1)NC[C@@H](O)c1cc(O)cc(O)c1")
"inactive"

# fetch the recorded call for C[N+]1(C)C2CC[C@H]1CC(OC(=O)[C@@H](CO)c1ccccc1)C2 (stereo not given in full) here inactive

# fetch the recorded call for C=C[C@@H]1CN2CC[C@H]1C[C@H]2[C@H](O)c1ccnc2ccccc12 here active

# fetch the recorded call for C[N+]1([O-])[C@H]2CC[C@H]1CC(OC(=O)[C@@H](CO)c1ccccc1)C2 (stereo not given in full) here inactive

====

- system_tested: Peroxisome proliferator-activated receptor alpha (Homo sapiens)
- test_description: qHTS assay for small molecule agonists of the peroxisome proliferator-activated receptor alpha (PPARalpha) signaling pathway (AID 651778); also: % of control where 0% means no effect
- condition_description: PathHunter PPARalpha complementation, chemiluminescence, 6 h; stronger effect = higher value
metric: max response (%)
Report as a plain number; the unit % is understood.

Here's what some known entries look like.
>>> measured_result("O=[N+]([O-])c1cc(Cl)c(Cl)c(Cl)c1")
-4.23
>>> measured_result("Cc1cc(-c2cc(C)c(N)c(C)c2)cc(C)c1N")
-3.9
>>> measured_result("Oc1c(Cl)cccc1Cl")
-1.21
>>> measured_result("CC(=O)CCC(C)=O")
-3.42
>>> measured_result("CC(C)Br")
-8.27
>>> measured_result("ClC(Cl)C(Cl)Cl")
-3.31
>>> measured_result("CN(C)C(=O)Cl")
-4.05
>>> measured_result("COc1ccccc1N")
-0.908

Lab note: next compound to report on.
Notebook: FC(Cl)(Cl)Cl , max response read as -4.74

====

- system_tested: Voltage-gated inwardly rectifying potassium channel KCNH2 (Homo sapiens)
- test_description: qHTS Assay for Small Molecule Inhibitors of the Human hERG Channel Activity (AID 588834);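 also: U2OS cells transduced with hERG by BacMam; top concentration of the series differs between compounds; % is scaled to controls: 0 for no effect and ±100 for the full control effect; lower thallium flux fluorescence means stronger hERG block; nearly all actives have a fitted effect of over 50% in size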
- condition_description: U2OS BacMam hERG, FluxOR thallium flux fluorescence; series mostly up to 92.2 µM
Results filed as inconclusive are left out. Activity calls are given as the source filed them. The call rests on the fitted dose curve; in most records, active means well fitted inhibition curve with a large enough effect; inconclusive means small, poorly fitted or top-dose-only effect; inactive means flat fitted curve, though single readings scatter.
Outcomes you can answer with include only these: active, inactive

>>> label_class("C=CCCC#N")
"inactive"
>>> label_class("CC(=O)[O-].CC(=O)[O-].CC(=O)[O-].[Cr+3]")
"inactive"
>>> label_class("CN1CSC(=S)N(C)C1")
"inactive"
>>> label_class("Nc1ccc(Cl)c(Cl)c1")
"inactive"
>>> label_class("N#CCCCCC#N")
"inactive"

# fetch the recorded call for ClCc1ccccc1 here inactive

# fetch the recorded call for CC(=O)CCC(C)=O here inactive

# fetch the recorded call for CC(C)(COCC1CO1)COCC1CO1 (stereo not given) here inactive

# fetch the recorded call for ClCC(Br)CBr (stereo not given) here inactive

# fetch the recorded call for O=[N+]([O-])c1cccc(O)c1 here inactive

# fetch the recorded call for Oc1c(Cl)c(Cl)cc(Cl)c1Cl here inactive

# fetch the recorded call for Oc1cc(Cl)c(Cl)c(Cl)c1Cl here inactive

# fetch the recorded call for Clc1cc(Cl)c(Cl)c(Cl)c1 here inactive

# fetch the recorded call for C=CCOCC1CO1 (stereo not given) here inactive

# fetch the recorded call for CC(C)(C)c1ccccc1O here inactive

# fetch the recorded call for Cc1ccc(N)cc1Cl here inactive

# fetch the recorded call for OCCBr here inactive

# fetch the recorded call for Oc1ccc(Cl)c(Cl)c1 here inactive

# fetch the recorded call for CCOC(=O)C1OC1(C)c1ccccc1 (stereo not given) here inactive

# fetch the recorded call for CCBr here inactive

====

- system_tested: Peroxisome proliferator-activated receptor alpha (Homo sapiens) (UniProt Q07869)
- Sequence (Q07869 whole entry, looked up): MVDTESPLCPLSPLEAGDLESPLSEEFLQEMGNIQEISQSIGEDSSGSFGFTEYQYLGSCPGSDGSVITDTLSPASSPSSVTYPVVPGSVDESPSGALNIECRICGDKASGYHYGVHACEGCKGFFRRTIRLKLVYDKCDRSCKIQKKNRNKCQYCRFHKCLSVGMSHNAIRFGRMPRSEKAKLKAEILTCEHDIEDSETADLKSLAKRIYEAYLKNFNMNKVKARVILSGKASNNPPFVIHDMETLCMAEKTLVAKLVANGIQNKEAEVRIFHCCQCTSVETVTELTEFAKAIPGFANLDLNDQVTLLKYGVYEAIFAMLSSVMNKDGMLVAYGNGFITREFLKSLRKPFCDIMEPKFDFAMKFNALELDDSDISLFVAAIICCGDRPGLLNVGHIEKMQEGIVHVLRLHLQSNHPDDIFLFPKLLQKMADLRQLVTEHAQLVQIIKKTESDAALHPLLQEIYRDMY
- test_description: qHTS assay for small molecule agonists of the peroxisome proliferator-activated receptor alpha (PPARalpha) signaling pathway (AID 651778); also: % of control where 0% means no effect
- condition_description: PathHunter PPARalpha complementation, chemiluminescence, 6 h; stronger effect = higher value
metric: max response (%)
Report as a plain number; the unit % is understood.

>>> measured_result("ClC(Cl)(Cl)C(Cl)(Cl)Cl")
-2.99
>>> measured_result("Nc1cc(Cl)ccc1Cl")
-1.24
>>> measured_result("C=CC(=O)OCCO")
5.17
>>> measured_result("O=[N+]([O-])c1cccc(CCl)c1")
0.189
>>> measured_result("Nc1ccccc1-c1ccccc1")
-2.98

Notebook: CCN(CC)N=O , max response read as 2.1

Notebook: C=C(Cl)CCl , max response read as -4.17

Notebook: COc1c(C(C)(C)C)cc([N+](=O)[O-])c(C)c1[N+](=O)[O-] , max response read as 1.79

Notebook: CN(C)c1ccc(N(C)C)cc1 , max response read as -4.1

Notebook: N#CCCCCC#N , max response read as -1.89

Notebook: O=[N+]([O-])c1ccccc1-c1ccccc1 , max response read as -6.56

Notebook: CCNCC , max response read as 7.15

Notebook: [O-][Cl+2]([O-])O , max response read as -2.92

Notebook: Cc1cccc(C)c1N , max response read as 1.61
